Test: In vitro plasma binding of acetazolamide with graded concentrations of diflunisal (dialysis)
Format: in vitro ADME
Conditions: human, 90 μM acetazolamide, diflunisal 400 μm
reportedEndpoint: fraction unbound at 18 h, 90 µM
# answer = number (no unit)

Per the records, this compound ( CC(=O)Nc1nnc(S(N)(=O)=O)s1 [Acetazolamide] ) has fraction unbound at 18 h, 90 µM equal to 0.22
